experiment: in vitro; conditions: human, liver microsomes
assay_endpoint: half-life (min)
Entry rule: numbers only, all in min.

INPUT: Respond only with half-life recorded for Cc1nc2ccccc2n1-c1ccc(C(=O)N(C)[C@@H]2CCN(C3CCC3)C2)cc1
OUTPUT: 15

###

assay: in vitro; settings: human, microsomes
assay_endpoint: half-life

INPUT: Respond only with half-life recorded for Cc1nc2ccccc2n1-c1ccc(C(=O)N(C)[C@@H]2CCN(C3CCCCC3)C2)cc1
OUTPUT: > 30 min
